Data origin, for the record: patent US9637496B2

# experimental system: human orexin 1 receptor (Homo sapiens (Human), UniProt O43613)
# Sequence (O43613 whole entry): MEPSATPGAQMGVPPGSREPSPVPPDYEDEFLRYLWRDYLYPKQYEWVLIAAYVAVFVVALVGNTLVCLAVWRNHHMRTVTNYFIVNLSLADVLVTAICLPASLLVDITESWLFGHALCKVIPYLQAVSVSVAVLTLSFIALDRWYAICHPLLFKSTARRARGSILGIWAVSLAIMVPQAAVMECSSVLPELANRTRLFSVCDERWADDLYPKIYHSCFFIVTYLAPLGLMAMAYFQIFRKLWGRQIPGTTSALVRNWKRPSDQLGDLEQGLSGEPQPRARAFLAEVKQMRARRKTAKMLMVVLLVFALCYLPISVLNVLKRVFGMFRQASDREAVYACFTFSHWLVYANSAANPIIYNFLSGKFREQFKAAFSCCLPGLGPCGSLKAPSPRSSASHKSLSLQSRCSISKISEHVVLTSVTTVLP
# test description: Human orexin 1 receptor radioligand binding (competitive binding, CHO membranes)
# conditions: read-out: hOX1 Ki
I'd appreciate it if you marked entries condition met when Ki is lower than 9 nM and condition not met when it is not.

[
  {
    "query smiles": "Cc1cccc(C(=O)N2[C@@H]3CC[C@H]2[C@H](Nc2ncc(Br)cn2)C3)c1-n1nccn1",
    "class assignment": "condition not met"
  },
  {
    "query smiles": "O=C(c1cc(F)ccc1-c1ncccn1)N1[C@@H]2CC[C@H]1[C@H](Nc1ncc(C(F)(F)F)cn1)C2",
    "class assignment": "condition not met"
  },
  {
    "query smiles": "Cc1cccc(C(=O)N2[C@@H]3CC[C@H]2[C@H](Nc2ccc(Br)cn2)C3)c1-c1ncco1",
    "class assignment": "condition met"
  },
  {
    "query smiles": "O=C(c1ccccc1-c1ncccn1)N1[C@@H]2CC[C@H]1[C@H](Nc1ccc(C(F)(F)F)cn1)C2",
    "class assignment": "condition not met"
  },
  {
    "query smiles": "O=C(c1cccc(F)c1-n1nccn1)N1[C@@H]2CC[C@H]1[C@H](Nc1ccc(Br)cn1)C2",
    "class assignment": "condition not met"
  }
]

---

# maps each entry to its pKi
# experimental system: rat orexin 1 receptor (Rattus norvegicus (Rat), UniProt P56718)
# Sequence (P56718 whole entry): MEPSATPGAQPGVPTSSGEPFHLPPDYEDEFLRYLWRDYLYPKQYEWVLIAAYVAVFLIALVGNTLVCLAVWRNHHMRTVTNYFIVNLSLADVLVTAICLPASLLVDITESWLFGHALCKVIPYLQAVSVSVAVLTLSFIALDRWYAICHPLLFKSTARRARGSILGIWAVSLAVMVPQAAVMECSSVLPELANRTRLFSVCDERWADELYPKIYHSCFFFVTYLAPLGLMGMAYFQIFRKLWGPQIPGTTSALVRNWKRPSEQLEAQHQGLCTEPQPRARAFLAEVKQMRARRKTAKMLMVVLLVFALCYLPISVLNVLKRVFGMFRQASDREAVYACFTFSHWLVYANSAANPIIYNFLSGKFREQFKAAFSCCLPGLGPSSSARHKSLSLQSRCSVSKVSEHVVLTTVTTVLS
# test description: Rat orexin 1 receptor radioligand binding (competitive binding, HEK293 membranes)
# conditions: read-out: rOX1 Ki
pKi: −log10 of the molar value.

[
  {
    "query smiles": "O=C(c1ncccc1-c1ncccn1)N1[C@@H]2CC[C@H]1[C@H](Nc1ccc(C(F)(F)F)cn1)C2",
    "pKi": 7.60
  },
  {
    "query smiles": "Cc1ccc(-c2ncccn2)c(C(=O)N2[C@@H]3CC[C@H]2[C@H](Nc2cnc(C(F)(F)F)cn2)C3)n1",
    "pKi": 7.06
  },
  {
    "query smiles": "Cc1cccc(C(=O)N2[C@@H]3CC[C@H]2[C@H](Nc2ncc(Br)cn2)C3)c1-c1ncco1",
    "pKi": 8.22
  },
  {
    "query smiles": "O=C(c1ccccc1-c1ncc(F)cn1)N1[C@@H]2CC[C@H]1[C@H](Nc1ccc(C(F)(F)F)cn1)C2",
    "pKi": 7.39
  },
  {
    "query smiles": "O=C(c1ccccc1-c1ncc(F)cn1)N1[C@@H]2CC[C@H]1[C@H](Nc1ncc(C(F)(F)F)cc1Cl)C2",
    "pKi": 7.43
  },
  {
    "query smiles": "O=C(c1cccc(F)c1-c1ncc(F)cn1)N1[C@@H]2CC[C@H]1[C@H](Nc1ccc(C(F)(F)F)cn1)C2",
    "pKi": 7.31
  },
  {
    "query smiles": "Cc1cnc(C(=O)N2[C@@H]3CC[C@H]2[C@H](Nc2cnc(C(F)(F)F)cn2)C3)c(-c2ncccn2)c1",
    "pKi": 7.28
  }
]

---

# experimental system: rat orexin 1 receptor (Rattus norvegicus (Rat), UniProt P56718)
# test description: Rat orexin 1 receptor radioligand binding (competitive binding, HEK293 membranes)
# conditions: rat orexin 1 receptor; Table 2, averages from between 2-20 runs; read-out: rOX1 Ki
pKi: −log10 of the molar value.
readout name: pKi

[
  {
    "compound": "Cc1cccc(C(=O)N2[C@@H]3CC[C@H]2[C@H](Nc2ccc(C#N)cn2)C3)c1-c1ncco1 [Example 394]",
    "limit sign": "=",
    "test value": 6.73
  },
  {
    "compound": "O=C(c1cccc(F)c1-c1ncccn1)N1[C@@H]2CC[C@H]1[C@H](Nc1ncc(C(F)(F)F)cc1F)C2 [Example 382]",
    "limit sign": "=",
    "test value": 7.74
  },
  {
    "compound": "O=C(c1c(F)cccc1-n1nccn1)N1C2CCC1C(Oc1ccc(C(F)(F)F)nc1)C2 (racemic) [Example 439]",
    "limit sign": "<",
    "test value": 5.00
  },
  {
    "compound": "O=C(c1c(F)cccc1-c1ncccn1)N1[C@@H]2CC[C@H]1[C@H](Nc1ncc(C(F)(F)F)cn1)C2 [Example 416]",
    "limit sign": "=",
    "test value": 6.86
  },
  {
    "compound": "O=C(c1ccc(F)cc1-c1ncccn1)N1C2CCC1C(Oc1ccc(C(F)(F)F)cn1)C2 (racemic) [Example 430]",
    "limit sign": "=",
    "test value": 6.61
  },
  {
    "compound": "Cc1cnc(-c2ncccn2)c(C(=O)N2[C@@H]3CC[C@H]2[C@H](Nc2ccc(C(F)(F)F)cn2)C3)c1 [Example 378]",
    "limit sign": "=",
    "test value": 6.51
  },
  {
    "compound": "O=C(c1cccc(F)c1-c1ncco1)N1C2CCC1C(Oc1ccc(C(F)(F)F)cn1)C2 (racemic) [Example 436]",
    "limit sign": "=",
    "test value": 6.84
  }
]
